Test system: Enterobacter cloacae VGH 84-37
Experiment: in vitro antibacterial MIC, agar plate dilution
Assay type: cell-based
Conditions: Enterobacter cloacae, VGH8437, 18 h, 35° C., read-out: MIC

compound	MIC
CCn1cc(C(=O)O)c(=O)c2cc(F)c(N3CCNC(CF)C3)cc21 (stereo not drawn)	≤ 0.12 µg/mL
CCn1cc(C(=O)O)c(=O)c2cc(F)c(N3CCN(C)C(c4sc5ccccc5c4C)C3)cc21 (stereo not drawn)	> 256 µg/mL
O=C(O)c1cn(C2CC2)c2cc(N3CCNC(c4ccsc4)C3)c(F)cc2c1=O (stereo not drawn)	< 0.12 µg/mL

###

System: Providencia stuarti CMC 83-3
Experiment: in vitro antibacterial MIC, agar plate dilution
Assay type: cell-based
Conditions: Providencia, CMC833, 18 h, 35° C., read-out: MIC
Item-by-item account of MIC

molecule	MIC
O=C(O)c1cn(C2CC2)c2cc(N3CCNC(c4ccccn4)C3)c(F)cc2c1=O (centres unmarked) [Example 128]	> 16 µg/mL
CCn1cc(C(=O)O)c(=O)c2cc(F)c(N3CCN(C)C(c4ccn(C)n4)C3)cc21 (centres unmarked) [Example 109]	> 16 µg/mL
O=C(O)c1cn(C2CC2)c2cc(N3CCNC(c4cc[nH]n4)C3)c(F)cc2c1=O (centres unmarked) [Example 121]	> 16 µg/mL
CN1CCN(c2cc3c(cc2F)c(=O)c(C(=O)O)cn3C2CC2)CC1C1CC1 (centres unmarked) [Example 125]	> 16 µg/mL
CCn1cc(C(=O)O)c(=O)c2cc(F)c(N3CCNC(c4ccncc4)C3)cc21 (centres unmarked) [Example 123]	> 16 µg/mL
CCn1cc(C(=O)O)c(=O)c2cc(F)c(N3CCNC(c4ccncc4)C3)c(F)c21 (centres unmarked) [Example 127]	> 16 µg/mL
CCn1cc(C(=O)O)c(=O)c2cc(F)c(N3CCNC(c4cccnc4)C3)cc21 (centres unmarked) [Example 122]	> 16 µg/mL
CCn1cc(C(=O)O)c(=O)c2cc(F)c(N3CCN(C)C(c4ccnn4C)C3)cc21 (centres unmarked) [Example 110]	> 16 µg/mL
